// data source = patent US6914045B2

Please respond with reported MIC Enterococcus faecalis (GC 4553) for every item in the list.
- Test system: Enterococcus sp.
- Method Notes: in vitro antibacterial evaluation, MIC by broth dilution
- Assay type: cell-based
- Details: broth dilution, 18 hours at 35° C.
Give bare numbers, in µg/mL.

Past entries and their recorded results:
Cc1ccc(COCC2OC(OC3C(CO)OC(Oc4ccc(CC5NC(=O)C(C(C)c6ccccc6)NC(=O)CNC(=O)C(CO)NC(=O)C(C(O)C6CNC(=N)N6C6OC(CO)C(O)C(O)C6O)NC(=O)C(C(O)C6CNC(=N)N6)NC5=O)cc4)C(O)C3O)C(O)C(O)C2O)cc1 (centres unmarked) = 8
CC(c1ccccc1)C1NC(=O)CNC(=O)C(CO)NC(=O)C(C(O)C2CNC(=N)N2C2OC(CO)C(O)C(O)C2O)NC(=O)C(C(O)C2CNC(=N)N2)NC(=O)C(Cc2ccc(OC3OC(CO)C(OC4OC5COC6(CC7CCC6(C)C7(C)C)OC5C(O)C4O)C(O)C3O)cc2)NC1=O (centres unmarked) [Example 215] = 0.5
CC(c1ccccc1)C1NC(=O)CNC(=O)C(CO)NC(=O)C(CC2CNC(=N)N2C2OC(CO)C(O)C(O)C2O)NC(=O)C(CC2CNC(=N)N2)NC(=O)C(Cc2ccc(OC3OC(CO)C(OC4OC(CO)C(O)C(OCc5ccc(OCc6ccccc6)cc5)C4O)C(O)C3O)cc2)NC1=O (centres unmarked) [Example 246b] = 128
CCOc1cc(COCC2OC(OC3C(CO)OC(Oc4ccc(CC5NC(=O)C(C(C)c6ccccc6)NC(=O)CNC(=O)C(CO)NC(=O)C(C(O)C6CNC(=N)N6C6OC(CO)C(O)C(O)C6O)NC(=O)C(C(O)C6CNC(=N)N6)NC5=O)cc4)C(O)C3O)C(O)C(O)C2O)ccc1OC (centres unmarked) = 32
CC(c1ccccc1)C1NC(=O)CNC(=O)C(CO)NC(=O)C(C(O)C2CNC(=N)N2C2OC(CO)C(O)C(O)C2O)NC(=O)C(C(O)C2CNC(=N)N2)NC(=O)C(Cc2ccc(OC3OC(CO)C(OC4OC5COC6(CCCCC6(C)C)OC5C(O)C4O)C(O)C3O)cc2)NC1=O (centres unmarked) = 2

// each compound listed below needs its MIC Enterococcus faecalis (GC 4553)
1. CC(c1ccccc1)C1NC(=O)CNC(=O)C(CO)NC(=O)C(C(O)C2CNC(=N)N2C2OC(CO)C(O)C(O)C2O)NC(=O)C(C(O)C2CNC(=N)N2)NC(=O)C(Cc2ccc(OC3OC(COC(=O)C(c4ccccc4)c4ccccc4)C(OC4OC(CO)C(O)C(O)C4O)C(O)C3O)cc2)NC1=O (centres unmarked) [Example 96b]
2. CC(c1ccccc1)C1NC(=O)CNC(=O)C(CO)NC(=O)C(C(O)C2CNC(=N)N2C2OC(CO)C(O)C(O)C2O)NC(=O)C(C(O)C2CNC(=N)N2)NC(=O)C(Cc2ccc(OC3OC(CO)C(OC4OC5COC6(CC7CCC6(C)C7(C)C)OC5C(O)C4O)C(O)C3O)cc2)NC1=O (centres unmarked) [Example 214]

stdout:
[8, 2]

Could you tell me MIC Enterococcus faecalis (GC 4553) for each of these compounds? They are listed below.
1. CC(C)=CCCC(C)=CCN=C1NCC(C(O)C2NC(=O)C(C(O)C3CNC(=N)N3)NC(=O)C(Cc3ccc(OC4OC(CO)C(OC5OC6COC7(OC6C(O)C5O)C5CC6CC(C5)CC7C6)C(O)C4O)cc3)NC(=O)C(C(C)c3ccccc3)NC(=O)CNC(=O)C(CO)NC2=O)N1C1OC(CO)C(O)C(O)C1O (centres unmarked)
2. CC(c1ccccc1)C1NC(=O)CNC(=O)C(CO)NC(=O)C(C(O)C2CNC(=N)N2C2OC(CO)C(O)C(O)C2O)NC(=O)C(C(O)C2CNC(=N)N2)NC(=O)C(Cc2ccc(OC3OC(CO)C(OC4OC5COC(c6ccccc6)OC5C(O)C4O)C(O)C3O)c(I)c2)NC1=O (centres unmarked)
3. CC(c1ccccc1)C1NC(=O)CNC(=O)C(CO)NC(=O)C(C(O)C2CNC(=N)N2C2OC(CO)C(O)C(O)C2O)NC(=O)C(C(O)C2CNC(=N)N2)NC(=O)C(Cc2ccc(OC3OC(CO)C(OC4OC(CO)C(OCC=Cc5ccc(N(C)C)cc5)C(O)C4O)C(O)C3O)cc2)NC1=O (centres unmarked) [Example 243a]
4. COc1ccc(COC2C(CO)OC(OC3C(CO)OC(Oc4ccc(CC5NC(=O)C(C(C)c6ccccc6)NC(=O)CNC(=O)C(CO)NC(=O)C(C(O)C6CNC(=N)N6C6OC(CO)C(O)C(O)C6O)NC(=O)C(C(O)C6CNC(=N)N6)NC5=O)cc4)C(O)C3O)C(O)C2O)cc1OCc1ccccc1 (centres unmarked) [Example 239a]
5. CC(c1ccccc1)C1NC(=O)CNC(=O)C(CO)NC(=O)C(C(O)C2CN(Cc3ccccc3)C(=NCc3ccccc3)N2C2OC(CO)C(O)C(O)C2O)NC(=O)C(C(O)C2CN(Cc3ccccc3)C(=NCc3ccccc3)N2Cc2ccccc2)NC(=O)C(Cc2ccc(OC3OC(CO)C(OC4OC5COC6(OC5C(O)C4O)C4CC5CC(C4)CC6C5)C(O)C3O)cc2)NC1=O (centres unmarked)

stdout:
8
64
32
8
4

* * *

- Tested on: Enterococcus sp.
- Method Notes: in vitro antibacterial evaluation, MIC by broth dilution
- Assay type: cell-based
- Details: Enterococcus faecalis (GC 4552); broth dilution, 18 hours at 35° C.
Numbered stars: 1 amine (or outer) side, 2 acyl side, 3 side chain; on linkers, the order of the positions; unused ones are H or OH. Square brackets hold non-standard residues; d marks the D form. Peptide text beside a SMILES is read from it. * marks the point of attachment. ξ: configuration not given here. X1 = N=C1NCC(C(O)C(N[*:1])C(=O)[*:2])N1C1OC(CO)C(O)C(O)C1O; ξEnduracididine(βξ-OH,4'ξ) = N=C1NCC(C(O)C(N)C(=O)O)N1; X2 = OCC1OC(OC2C(CO)OC(*)C(O)C2O)C(O)C(O)C1O; Diphenylacetyl = O=C(C(c1ccccc1)c1ccccc1)*; ξPhe(βξ-Me) = CC(c1ccccc1)C(N)C(=O)O
Can you tell me MIC Enterococcus faecalis (GC 4552) for the items I'm about to list?

Cc1ccc(CC2OCC3OC(OC4C(CO)OC(Oc5ccc(CC6NC(=O)C(C(C)c7ccccc7)NC(=O)CNC(=O)C(CO)NC(=O)C(C(O)C7CNC(=N)N7C7OC(CO)C(O)C(O)C7O)NC(=O)C(C(O)C7CNC(=N)N7)NC6=O)cc5)C(O)C4O)C(O)C(O)C3O2)cc1 (stereo not shown) = 2 µg/mL
CC(c1ccccc1)C1NC(=O)CNC(=O)C(CO)NC(=O)C(C(O)C2CNC(=N)N2C2OC(CO)C(O)C(O)C2O)NC(=O)C(C(O)C2CNC(=N)N2)NC(=O)C(Cc2ccc(OC3OC(CO)C(OC4OC5COC(c6ccc(C(=O)O)cc6)OC5C(O)C4O)C(O)C3O)cc2)NC1=O (stereo not shown) = >64 µg/mL
CC(c1ccccc1)C1NC(=O)CNC(=O)C(CO)NC(=O)C(C(O)C2CN(CCCCCCCCCCCCO)C(=N)N2C2OC(CO)C(O)C(O)C2O)NC(=O)C(C(O)C2CNC(=N)N2)NC(=O)C(Cc2ccc(OC3OC(CO)C(OC4OC(CO)C(O)C(O)C4O)C(O)C3O)cc2)NC1=O (stereo not shown) = 128 µg/mL

Please give MIC Enterococcus faecalis (GC 4552) for each item listed below.
1. CC(c1ccccc1)C1NC(=O)CNC(=O)C(CO)NC(=O)C(C(O)C2CNC(=N)N2C2OC(CO)C(O)C(O)C2O)NC(=O)C(C(O)C2CNC(=N)N2)NC(=O)C(Cc2ccc(OC3OC(CO)C(OC4OC5COC(Cc6ccc(Br)cc6)OC5C(O)C4O)C(O)C3O)cc2)NC1=O (stereo not shown)
2. CC(c1ccccc1)C1NC(=O)CNC(=O)C(COC(=O)C(c2ccccc2)c2ccccc2)NC(=O)C(C(O)C2CNC(=N)N2C2OC(CO)C(O)C(O)C2O)NC(=O)C(C(O)C2CNC(=N)N2)NC(=O)C(Cc2ccc(OC3OC(CO)C(OC4OC(CO)C(O)C(O)C4O)C(O)C3O)cc2)NC1=O (stereo not drawn) [Example 96a] (cyclo(G[ξPhe(βξ-Me)]Y(X2)[ξEnduracididine(βξ-OH,4'ξ)][X1]S(Diphenylacetyl)); configuration not given here)
3. CC(c1ccccc1)C1NC(=O)CNC(=O)C(CO)NC(=O)C(C(O)C2CN(c3ncccn3)C(=N)N2C2OC(CO)C(O)C(O)C2O)NC(=O)C(C(O)C2CNC(=Nc3ncccn3)N2)NC(=O)C(Cc2ccc(OC3OC(CO)C(OC4OC(CO)C(O)C(O)C4O)C(O)C3O)cc2)NC1=O (stereo not shown)
4. CC(c1ccccc1)C1NC(=O)CNC(=O)C(CO)NC(=O)C(C(O)C2CNC(=N)N2C2OC(CO)C(O)C(O)C2O)NC(=O)C(C(O)C2CNC(=N)N2)NC(=O)C(Cc2ccc(OC3OC(CO)C(OC4OC5COC(c6ccc(C(C)(C)C)cc6)OC5C(O)C4O)C(O)C3O)cc2)NC1=O (stereo not shown)

stdout:
1: 1 to 2 µg/mL; 2: >128 µg/mL; 3: >128 µg/mL; 4: 0.5 to 1 µg/mL
